molecular target: GPR40 of human origin (Homo sapiens, UniProt O14842); assay: Agonist action on GPR40 of human origin (Ca2+ fluorescence in CHO cells); conditions: CHO cell strain stably expressing GPR40 of human origin; Ca2+ concentration fluctuation, fluorescent calcium indicator
Sequence (O14842 whole entry): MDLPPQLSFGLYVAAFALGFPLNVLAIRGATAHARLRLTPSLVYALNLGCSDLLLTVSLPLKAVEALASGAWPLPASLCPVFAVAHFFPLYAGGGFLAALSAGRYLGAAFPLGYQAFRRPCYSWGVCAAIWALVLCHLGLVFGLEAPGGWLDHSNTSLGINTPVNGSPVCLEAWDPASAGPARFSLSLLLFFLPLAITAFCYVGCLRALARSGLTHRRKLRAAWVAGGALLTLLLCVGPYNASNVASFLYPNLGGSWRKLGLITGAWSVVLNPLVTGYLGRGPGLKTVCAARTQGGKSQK
pEC50: −log10 of the molar value.
propertyMeasured: pEC50

[O-][s+]1nc(O)cc1-c1ccc(OC2CCc3cc(Cl)ccc32)cc1 (stereo not shown): 5.52 to 6.52
C[C@@H](Oc1ccc(-c2cc(O)n[s+]2[O-])cc1)c1cccc(Br)c1 (stereo partly shown): 5.52 to 6.52
Cc1cc(OCCCS(C)(=O)=O)cc(C)c1-c1cccc(COc2ccc(-c3cc(O)n[s+]3[O-])cc2)c1C (stereo not shown): > 6.52
Cc1cc(OCCCS(C)(=O)=O)c(F)c(C)c1-c1cccc(COc2ccc(-c3cc(O)n[s+]3[O-])cc2)c1 (stereo not shown): > 6.52
Cc1nc(OCCC(C)(C)O)ccc1-c1cccc(COc2ccc(-c3cc(O)n[s+]3[O-])cc2)c1C (stereo not shown): > 6.52
Cc1cc(OCCCS(C)(=O)=O)nc(C)c1-c1cccc(COc2ccc(-c3cc(O)n[s+]3[O-])cc2)c1 (stereo not shown): > 6.52
Cc1ncccc1Oc1cccc2c1CCC2Oc1ccc(-c2cc(O)n[s+]2[O-])cc1 (stereo not shown): > 6.52
[O-][s+]1nc(O)cc1-c1ccc(OC2CCc3c(OC4CCOCC4)cccc32)cc1 (stereo not shown): > 6.52
Cc1cc(OCC[C@H](C)O)cc(C)c1-c1cccc(COc2ccc(-c3cc(O)n[s+]3[O-])cc2)c1C (stereo partly shown): > 6.52
COc1ccc(-c2cccc3c2CC[C@H]3Oc2ccc(-c3cc(O)n[s+]3[O-])cc2)c(C)n1 (stereo partly shown): > 6.52
Cc1c(Br)cccc1COc1ccc(-c2cc(O)n[s+]2[O-])cc1 (stereo not shown): 5.52 to 6.52
Cc1cccc(C)c1N1CCC[C@H](COc2ccc(-c3cc(O)n[s+]3[O-])cc2)C1 (stereo partly shown): > 6.52
[O-][s+]1nc(O)cc1-c1ccc(O[C@@H]2CCc3c(Br)cccc32)cc1 (stereo partly shown): > 6.52
[O-][s+]1nc(O)cc1-c1ccc(O[C@@H]2CCc3c(C4=CCOCC4)cccc32)cc1 (stereo partly shown): 5.52 to 6.52
Cc1cc(OCCCO)nc(C)c1-c1cccc(COc2ccc(-c3cc(O)n[s+]3[O-])cc2)c1 (stereo not shown): > 6.52
[O-][s+]1nc(O)cc1-c1ccc(OC2CCc3c(Oc4ccccc4)cccc32)cc1 (stereo not shown): > 6.52

// data source = patent US8476287B2
